pKi: −log10 of the molar value.
So I've got pKi readings for Interstitial collagenase (Homo sapiens, UniProt P03956), take a look.
EXPERIMENTAL READOUT: pKi

(I) CNC(=O)[C@@H]1CCCCNC(=O)CO[C@H](C(=O)NO)[C@@H](CC(C)C)C(=O)N1
(II) CNC(=O)[C@@H](Cc1ccc(OC)cc1)NC(=O)[C@H](CC(C)C)[C@H](C)C(=O)NO
Ask: Between I and II , whose measured pKi reads higher? Refer to your chosen item by its label in the answer.
Result: II
(II: 9.06, I: 8.55)

Where do these numbers come from? They come from ChEMBL document CHEMBL1131224.
